Listed here: items and their measured MIC.
test system: A. baumannii CDC-0083; assay: microbe, parasite or virus in culture; format: cell-based; conditions: Acinetobacter baumannii, CDC0083, read-out: MIC, A. baumannii CDC-0083

[[record]]
compound = "O=C(CN1CCN(C(=O)NC(C(=O)N[C@H]2Cc3ccc(F)c(C(=O)O)c3OB2O)c2cc(F)c(O)c(O)c2Cl)C(=O)C1=O)Nc1ccccc1 (some centres unmarked)"
endpoint = "MIC"
assay_result = "> 128 µg/mL"

[[record]]
compound = "O=C(O)c1c(F)ccc2c1OB(O)[C@@H](NC(=O)C(NC(=O)N1CCN(C3CCN(C(=O)c4c(F)ccc(O)c4F)CC3)C(=O)C1=O)c1cc(F)c(O)c(O)c1Cl)C2 (some centres unmarked)"
endpoint = "MIC"
assay_result = "< 1 µg/mL"


compound O=C(NCCCN1CCN(C(=O)NC(C(=O)N[C@H]2Cc3ccc(F)c(C(=O)O)c3OB2O)c2cc(F)c(O)c(O)c2Cl)C(=O)C1=O)c1cc(F)c(F)c(O)c1F (some centres unmarked) , MIC observed: > 128 µg/mL

compound O=C(NCCCN1CCN(C(=O)NC(C(=O)N[C@H]2Cc3ccc(F)c(C(=O)O)c3OB2O)c2cc(F)c(O)c(O)c2Cl)C1=O)c1ccc(O)cc1 (some centres unmarked) , MIC observed: 2 to 4 µg/mL

compound O=C(O)c1c(F)ccc2c1OB(O)[C@@H](NC(=O)C(NC(=O)N1CCN(C3CCN(C(=O)c4cncc(O)c4)CC3)C(=O)C1=O)c1cc(F)c(O)c(O)c1Cl)C2 (some centres unmarked) , MIC observed: 8 to 16 µg/mL

---

Listed here: items and their measured MIC.
system: N. gonorrhoeae MS11; assay: Liquid broth MIC in Fastidious broth; conditions: Neisseria gonorrhoeae, MS11, read-out: Minimum Inhibitory Concentration (MIC), N. gonorrhoeae MS11

Would you please look over these solved cases?
[[record]]
compound = "O=C(O)c1cccc2c1OB(O)[C@@H](NC(=O)[C@H](NC(=O)[C@@H]1CCCN1)c1ccc(P(=O)(O)O)cc1)C2 [Example 173]"
target_or_test_system = "N. gonorrhoeae MS11"
assay_result = "16 to 32 µg/mL"

[[record]]
compound = "O=C(CN1CCN(C(=O)NC(C(=O)N[C@H]2Cc3ccc(F)c(C(=O)O)c3OB2O)c2cc(F)c(O)c(O)c2Cl)C(=O)C1=O)Nc1ccncc1 (stereo partly drawn) [Example 233]"
target_or_test_system = "N. gonorrhoeae MS11"
assay_result = "16 to 32 µg/mL"


compound CCN1CCN(C(=O)NC(C(=O)N[C@H]2Cc3cccc(C(=O)O)c3OB2O)c2cccc(CP(=O)(O)O)c2)C(=O)C1=O (stereo partly drawn) [Example 22] , MIC observed: 1 to 2 µg/mL

---

Listed here: items and their measured EC50.
target: A. baumannii PBP2 (Acinetobacter baumannii, UniProt D0C8Z9); assay: Bocillin-FL competition binding via gel filtration, A. baumannii PBP2
Sequence (D0C8Z9 whole entry): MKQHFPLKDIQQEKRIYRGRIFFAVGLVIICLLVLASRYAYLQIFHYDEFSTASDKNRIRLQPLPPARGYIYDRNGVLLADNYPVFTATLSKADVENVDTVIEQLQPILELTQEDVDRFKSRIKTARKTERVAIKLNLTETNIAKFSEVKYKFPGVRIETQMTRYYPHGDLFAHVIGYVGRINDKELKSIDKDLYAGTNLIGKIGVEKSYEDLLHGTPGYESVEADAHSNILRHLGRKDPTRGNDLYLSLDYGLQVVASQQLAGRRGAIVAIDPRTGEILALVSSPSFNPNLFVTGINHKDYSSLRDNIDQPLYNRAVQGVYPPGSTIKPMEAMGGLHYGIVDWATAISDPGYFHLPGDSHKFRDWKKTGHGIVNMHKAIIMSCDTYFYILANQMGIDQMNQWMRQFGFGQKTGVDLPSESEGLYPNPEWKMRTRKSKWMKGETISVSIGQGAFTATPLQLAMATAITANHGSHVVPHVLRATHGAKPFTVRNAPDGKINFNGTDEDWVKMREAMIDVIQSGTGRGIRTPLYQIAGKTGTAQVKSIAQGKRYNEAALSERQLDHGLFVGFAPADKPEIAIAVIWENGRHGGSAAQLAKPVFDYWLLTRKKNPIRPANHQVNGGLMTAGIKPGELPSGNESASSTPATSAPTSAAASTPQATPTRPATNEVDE

compound O=C(NCCCS(=O)(=O)N1CCN(C(=O)NC(C(=O)N[C@H]2Cc3ccc(F)c(C(=O)O)c3OB2O)c2cc(F)c(O)c(O)c2Cl)C1=O)c1ccc(O)cc1 (stereo partly drawn) , EC50 observed: 10 to 50 µM

compound O=C(O)c1c(F)ccc2c1OB(O)[C@@H](NC(=O)C(NC(=O)N1CCN(CC3CCN(C(=O)c4cccc(O)c4)CC3)C(=O)C1=O)c1cc(F)c(O)c(O)c1Cl)C2 (stereo partly drawn) , EC50 observed: < 10 µM

compound O=C(NCCCN1CCN(C(=O)NC(C(=O)N[C@H]2Cc3ccc(F)c(C(=O)O)c3OB2O)c2cc(F)c(O)c(O)c2Cl)C(=O)C1=O)c1cc(O)cc(O)c1 (stereo partly drawn) , EC50 observed: < 10 µM

compound Cc1cnccc1C(=O)NCCCN1CCN(C(=O)NC(C(=O)N[C@H]2Cc3ccc(F)c(C(=O)O)c3OB2O)c2cc(F)c(O)c(O)c2Cl)C(=O)C1=O (stereo partly drawn) , EC50 observed: 10 to 50 µM

compound O=C(O)c1c(F)ccc2c1OB(O)[C@@H](NC(=O)C(NC(=O)N1CCN(C3CCN(C(=O)Nc4cc(O)c(F)cc4Cl)CC3)C(=O)C1=O)c1cc(F)c(O)c(O)c1Cl)C2 (stereo partly drawn) , EC50 observed: 10 to 50 µM

compound O=C(O)c1c(F)ccc2c1OB(O)[C@@H](NC(=O)[C@H](NC(=O)N1CCN(C3CCN(C(=O)c4ccc(O)c(O)c4Cl)CC3)C1=O)c1ccc(P(=O)(O)O)cc1)C2 , EC50 observed: 10 to 50 µM

compound O=C(O)c1c(F)ccc2c1OB(O)[C@@H](NC(=O)[C@H](NC(=O)N1CCN(C3CCN(C(=O)c4cc(O)c(F)c(O)c4F)CC3)C1=O)c1cc(F)c(O)c(O)c1Cl)C2 (single isomer, unassigned) , EC50 observed: < 10 µM

compound O=C(NCCS(=O)(=O)N1CCN(C(=O)N[C@@H](C(=O)N[C@H]2Cc3ccc(F)c(C(=O)O)c3OB2O)c2cc(F)c(O)c(O)c2Cl)C1=O)Nc1ccncc1 , EC50 observed: < 10 µM

compound O=C(O)c1c(F)ccc2c1OB(O)[C@@H](NC(=O)C(NC(=O)N1CCN(C3CCN(C(=O)Nc4ccc(F)c(O)c4)CC3)C(=O)C1=O)c1cc(F)c(O)c(O)c1Cl)C2 (stereo partly drawn) , EC50 observed: 10 to 50 µM

compound O=C(O)c1c(F)ccc2c1OB(O)[C@@H](NC(=O)C(NC(=O)N1CCN(C3CCN(C(=O)Nc4cccc(O)c4F)CC3)C(=O)C1=O)c1cc(F)c(O)c(O)c1Cl)C2 (stereo partly drawn) , EC50 observed: 10 to 50 µM

compound Nc1cc(CN2CCC(N3CCN(C(=O)N[C@@H](C(=O)N[C@H]4Cc5ccc(F)c(C(=O)O)c5OB4O)c4cc(F)c(O)c(O)c4Cl)C3=O)CC2)ccn1 , EC50 observed: 10 to 50 µM

compound O=C(O)c1c(F)ccc2c1OB(O)[C@@H](NC(=O)[C@H](NC(=O)N1CCN(C3CCN(C(=O)Nc4ccc(F)c(O)c4)CC3)C1=O)c1cc(F)c(O)c(O)c1Cl)C2 (single isomer, unassigned) , EC50 observed: < 10 µM

compound O=C(O)c1c(F)ccc2c1OB(O)[C@@H](NC(=O)[C@H](NC(=O)N1CCN(C3CCN(Cc4ccncn4)CC3)C1=O)c1cc(F)c(O)c(O)c1Cl)C2 , EC50 observed: 10 to 50 µM

compound O=C(NCCCN1CCN(C(=O)NC(C(=O)N[C@H]2Cc3ccc(F)c(C(=O)O)c3OB2O)c2cc(F)c(O)c(O)c2Cl)C(=O)C1=O)Nc1ccncc1 (stereo partly drawn) , EC50 observed: 10 to 50 µM

compound O=C(O)c1c(F)ccc2c1OB(O)[C@@H](NC(=O)C(NC(=O)N1CCN(C3CCN(C(=O)Nc4ccc(Cl)c(O)c4F)CC3)C(=O)C1=O)c1cc(F)c(O)c(O)c1Cl)C2 (stereo partly drawn) , EC50 observed: < 10 µM

compound O=C(NCCCS(=O)(=O)N1CCN(C(=O)N[C@@H](C(=O)N[C@H]2Cc3ccc(F)c(C(=O)O)c3OB2O)c2cc(F)c(O)c(O)c2Cl)C1=O)c1cccc(O)c1 , EC50 observed: < 10 µM

compound O=C(NCCCN1CCN(C(=O)NC(C(=O)N[C@H]2Cc3ccc(F)c(C(=O)O)c3OB2O)c2cc(F)c(O)c(O)c2Cl)C(=O)C1=O)c1ccc(O)cc1O (stereo partly drawn) , EC50 observed: < 10 µM

compound O=C(NCCS(=O)(=O)N1CCN(C(=O)NC(C(=O)N[C@H]2Cc3ccc(F)c(C(=O)O)c3OB2O)c2cc(F)c(O)c(O)c2Cl)C1=O)c1ccccc1 (stereo partly drawn) , EC50 observed: 10 to 50 µM

compound O=C(O)c1cccc2c1OB(O)[C@@H](NC(=O)C(NC(=O)N1CCN(Cc3ccc(O)c(O)c3Cl)C(=O)C1=O)c1ccc(P(=O)(O)O)cc1)C2 (stereo partly drawn) , EC50 observed: 10 to 50 µM

compound O=C(NCCCN1CCN(C(=O)NC(C(=O)N[C@H]2Cc3ccc(F)c(C(=O)O)c3OB2O)c2cc(F)c(O)c(O)c2Cl)C(=O)C1=O)c1cc(O)ccc1Cl (stereo partly drawn) , EC50 observed: < 10 µM

compound O=C(NCCCN1CCN(C(=O)NC(C(=O)N[C@H]2Cc3ccc(F)c(C(=O)O)c3OB2O)c2cc(F)c(O)c(O)c2Cl)C(=O)C1=O)c1ccnc(F)c1 (stereo partly drawn) , EC50 observed: 10 to 50 µM
